src = patent US6350766B1

// L-type inhibition 100 nM (%) lookup, one value per entry
Test system: L-type calcium channel
assay text: L-type calcium channel inhibition
run conditions: 100 nM
test readout: L-type inhibition 100 nM (%)

INSERT INTO measurements (molecule, target_entity, value_measured) VALUES
  ('CC1=C(C#N)C(c2cccc(Cl)c2)C(C(=O)OC/C=C/c2ccccc2)=C(C)N1 (centres unmarked)', 'L-type calcium channel', '56%'),
  ('CC1=C(C(=O)O)C(c2cccc(Cl)c2)C(C(=O)OCC(=O)Nc2ccccc2)=C(C)N1 (centres unmarked)', 'L-type calcium channel', '70%'),
  ('CC1=C(C(N)=O)C(c2cccc(Cl)c2)C(C(=O)OC/C=C/c2ccccc2)=C(C)N1 (centres unmarked)', 'L-type calcium channel', '75%'),
  ('COc1cccc(C2C(C(=O)O)=C(C)NC(C)=C2C(=O)OC/C=C/c2ccccc2)c1 (centres unmarked)', 'L-type calcium channel', '38%'),
  ('CC1=C(C(=O)O)C(c2cccc(C#N)c2)C(C(=O)OC/C=C/c2ccccc2)=C(C)N1 (centres unmarked)', 'L-type calcium channel', '98%');

* * *

target entity: N-type calcium channel (Rattus norvegicus)
Construct: from tissue; host or cells: freshly dissociated sympathetic ganglion cells of Wistar rats (2 to 4 weeks old)
Sequence (Q02294 whole entry): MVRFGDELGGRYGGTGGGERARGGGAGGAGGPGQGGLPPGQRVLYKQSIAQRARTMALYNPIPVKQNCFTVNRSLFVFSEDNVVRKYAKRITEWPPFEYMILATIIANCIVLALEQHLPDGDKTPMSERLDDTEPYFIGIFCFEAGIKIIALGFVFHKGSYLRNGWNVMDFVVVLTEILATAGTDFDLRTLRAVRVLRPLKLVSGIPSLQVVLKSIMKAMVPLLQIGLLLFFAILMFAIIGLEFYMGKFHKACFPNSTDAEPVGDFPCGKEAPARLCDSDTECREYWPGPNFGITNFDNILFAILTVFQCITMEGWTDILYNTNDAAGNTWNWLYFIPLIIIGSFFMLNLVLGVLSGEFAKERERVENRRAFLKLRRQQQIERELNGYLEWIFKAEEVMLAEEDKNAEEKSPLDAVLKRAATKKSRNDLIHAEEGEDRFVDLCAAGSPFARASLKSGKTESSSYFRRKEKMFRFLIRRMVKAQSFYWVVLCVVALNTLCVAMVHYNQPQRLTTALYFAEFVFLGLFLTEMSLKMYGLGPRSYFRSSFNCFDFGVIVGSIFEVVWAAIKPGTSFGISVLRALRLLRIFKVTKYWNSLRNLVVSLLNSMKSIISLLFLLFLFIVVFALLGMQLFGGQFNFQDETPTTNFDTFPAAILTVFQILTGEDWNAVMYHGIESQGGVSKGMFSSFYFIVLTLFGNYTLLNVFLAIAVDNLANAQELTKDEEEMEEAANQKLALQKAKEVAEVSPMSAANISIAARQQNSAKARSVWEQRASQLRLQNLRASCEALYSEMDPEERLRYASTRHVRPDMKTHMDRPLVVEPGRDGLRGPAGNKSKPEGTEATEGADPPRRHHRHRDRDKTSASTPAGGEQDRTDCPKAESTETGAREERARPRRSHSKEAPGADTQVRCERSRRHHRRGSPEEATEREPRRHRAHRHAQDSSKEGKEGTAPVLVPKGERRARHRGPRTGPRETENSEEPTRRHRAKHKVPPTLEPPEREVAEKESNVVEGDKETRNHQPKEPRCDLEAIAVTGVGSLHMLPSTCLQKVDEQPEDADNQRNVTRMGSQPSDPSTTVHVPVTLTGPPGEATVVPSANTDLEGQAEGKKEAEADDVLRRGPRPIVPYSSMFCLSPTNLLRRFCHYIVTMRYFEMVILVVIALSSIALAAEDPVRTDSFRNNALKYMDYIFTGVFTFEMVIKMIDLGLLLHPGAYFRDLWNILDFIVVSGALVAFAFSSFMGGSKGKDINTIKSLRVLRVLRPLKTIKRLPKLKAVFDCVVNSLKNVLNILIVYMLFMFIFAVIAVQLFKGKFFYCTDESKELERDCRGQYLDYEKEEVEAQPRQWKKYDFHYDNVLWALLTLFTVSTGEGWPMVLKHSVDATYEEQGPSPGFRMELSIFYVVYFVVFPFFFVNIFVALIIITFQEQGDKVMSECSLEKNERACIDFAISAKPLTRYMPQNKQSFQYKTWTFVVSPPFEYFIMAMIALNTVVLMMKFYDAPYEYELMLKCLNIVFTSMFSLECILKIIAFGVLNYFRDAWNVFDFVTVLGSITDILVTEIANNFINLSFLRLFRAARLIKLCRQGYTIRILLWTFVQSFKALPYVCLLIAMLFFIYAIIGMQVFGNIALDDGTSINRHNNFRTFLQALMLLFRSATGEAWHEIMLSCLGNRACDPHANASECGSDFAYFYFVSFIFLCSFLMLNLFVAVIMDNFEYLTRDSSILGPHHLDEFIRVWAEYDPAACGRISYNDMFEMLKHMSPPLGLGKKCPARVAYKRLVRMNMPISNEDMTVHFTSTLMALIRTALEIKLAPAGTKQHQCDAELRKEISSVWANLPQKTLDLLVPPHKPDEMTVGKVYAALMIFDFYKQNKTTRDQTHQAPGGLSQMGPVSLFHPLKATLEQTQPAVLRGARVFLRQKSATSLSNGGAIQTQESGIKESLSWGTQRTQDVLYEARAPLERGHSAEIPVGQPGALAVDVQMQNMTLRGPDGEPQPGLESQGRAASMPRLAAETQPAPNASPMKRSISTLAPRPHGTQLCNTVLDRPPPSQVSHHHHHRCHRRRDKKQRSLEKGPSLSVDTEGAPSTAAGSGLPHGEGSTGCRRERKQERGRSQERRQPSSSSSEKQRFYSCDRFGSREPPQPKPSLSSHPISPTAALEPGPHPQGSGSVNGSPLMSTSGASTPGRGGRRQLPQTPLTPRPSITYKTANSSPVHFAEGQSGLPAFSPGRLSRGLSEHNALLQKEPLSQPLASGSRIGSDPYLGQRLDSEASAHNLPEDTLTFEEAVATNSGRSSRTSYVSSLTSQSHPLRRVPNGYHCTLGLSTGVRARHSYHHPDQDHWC
Sequence (P54287 whole entry partner): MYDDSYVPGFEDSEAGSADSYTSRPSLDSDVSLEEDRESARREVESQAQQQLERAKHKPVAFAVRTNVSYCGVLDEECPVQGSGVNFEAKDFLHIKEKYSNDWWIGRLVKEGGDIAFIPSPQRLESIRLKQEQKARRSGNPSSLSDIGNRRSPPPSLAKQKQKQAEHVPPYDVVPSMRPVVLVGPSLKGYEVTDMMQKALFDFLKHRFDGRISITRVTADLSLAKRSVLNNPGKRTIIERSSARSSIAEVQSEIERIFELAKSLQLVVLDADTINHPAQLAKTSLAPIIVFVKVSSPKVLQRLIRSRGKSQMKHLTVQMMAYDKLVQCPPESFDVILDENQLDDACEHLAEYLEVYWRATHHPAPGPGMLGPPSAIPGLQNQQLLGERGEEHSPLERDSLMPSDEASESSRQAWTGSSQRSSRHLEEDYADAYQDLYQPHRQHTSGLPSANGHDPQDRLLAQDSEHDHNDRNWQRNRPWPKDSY
Sequence (P54290 25-944 partner limits assumed): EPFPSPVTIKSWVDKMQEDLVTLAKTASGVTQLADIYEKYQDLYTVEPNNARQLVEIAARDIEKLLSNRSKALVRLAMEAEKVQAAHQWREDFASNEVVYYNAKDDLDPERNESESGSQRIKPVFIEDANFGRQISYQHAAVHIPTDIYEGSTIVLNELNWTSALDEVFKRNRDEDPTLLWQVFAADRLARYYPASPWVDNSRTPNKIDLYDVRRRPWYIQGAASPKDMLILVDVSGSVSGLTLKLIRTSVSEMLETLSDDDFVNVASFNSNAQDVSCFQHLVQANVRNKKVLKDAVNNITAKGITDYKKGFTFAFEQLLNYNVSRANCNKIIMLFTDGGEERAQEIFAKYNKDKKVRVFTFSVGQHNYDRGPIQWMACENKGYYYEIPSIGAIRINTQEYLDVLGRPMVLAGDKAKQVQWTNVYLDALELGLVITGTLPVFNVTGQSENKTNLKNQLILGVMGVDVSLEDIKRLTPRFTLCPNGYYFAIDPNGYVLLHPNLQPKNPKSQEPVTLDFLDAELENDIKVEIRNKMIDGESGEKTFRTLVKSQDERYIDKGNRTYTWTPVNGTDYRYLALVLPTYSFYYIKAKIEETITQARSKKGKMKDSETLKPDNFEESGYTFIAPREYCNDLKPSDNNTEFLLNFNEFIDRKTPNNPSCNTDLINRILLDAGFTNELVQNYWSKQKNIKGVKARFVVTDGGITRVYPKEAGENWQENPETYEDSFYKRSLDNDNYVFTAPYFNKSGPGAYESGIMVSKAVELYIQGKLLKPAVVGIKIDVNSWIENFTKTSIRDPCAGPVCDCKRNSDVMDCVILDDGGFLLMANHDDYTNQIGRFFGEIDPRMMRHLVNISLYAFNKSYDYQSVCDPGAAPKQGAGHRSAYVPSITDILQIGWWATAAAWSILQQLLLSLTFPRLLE
Sequence (P54290 945-1091 partner limits assumed): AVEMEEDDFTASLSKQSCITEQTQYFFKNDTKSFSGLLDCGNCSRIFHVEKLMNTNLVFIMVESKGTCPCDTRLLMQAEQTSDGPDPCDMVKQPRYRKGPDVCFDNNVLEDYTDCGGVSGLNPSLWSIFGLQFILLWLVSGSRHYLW
assay text: Inhibition of N-type calcium channel: calcium currents in cells of maxillary sympathetic ganglions of rats, whole cell voltage clamp
Assay type: cell-based
run conditions: rat maxillary sympathetic ganglion cells, depolarization from -60 mV to 0 mV, barium as charge carrier
test readout: inhibition at 0.1 µM

INSERT INTO results (compound, value_measured) VALUES
  ('CC1=C(C(=O)O)C(c2cccc(Cl)c2)C(C(=O)OCC(=O)Nc2ccccc2)=C(C)N1 (centres unmarked) [Example 14]', '28.6%'),
  ('CC1=C(C(N)=O)C(c2cccc(Cl)c2)C(C(=O)OC/C=C/c2ccccc2)=C(C)N1 (centres unmarked) [Example 8]', '31.4%'),
  ('CC1=C(C#N)C(c2cccc(Cl)c2)C(C(=O)OC/C=C/c2ccccc2)=C(C)N1 (centres unmarked) [Example 9]', '21.3%'),
  ('COc1cccc(C2C(C(=O)O)=C(C)NC(C)=C2C(=O)OC/C=C/c2ccccc2)c1 (centres unmarked) [Example 20]', '24.3%'),
  ('CC1=C(C(=O)O)C(c2cccc(C#N)c2)C(C(=O)OC/C=C/c2ccccc2)=C(C)N1 (centres unmarked) [Example 3]', '47.5%');
